- assay overview: chemical genetic growth profiling, strain panel (AID 1159580);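 also: tested at 20 µM; growth read once vehicle control cultures reached saturation at 30 °C; lower values mean less growth of the strain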
- applied conditions: S. cerevisiae deletion strains, growth OD, locus YHR027C, strain rpn1
In all, about 5,500 compounds went through this assay and about 2,000 (36%) were called active. About 18% were inconclusive and are not listed. Rule as the data show it: active = normalized growth mostly below about 0.91 (no sharp cut-off); inconclusive = no clear call, values can overlap the other calls; inactive = mostly above about 0.92. The list shows a part of the results.
Outcomes: Y (active), N (inactive)

molecule=Oc1ccc(/C=C/c2cc(O)cc(O)c2)cc1 assigned_category=N
molecule="O=C(NC(Cc1cc(=O)[nH]c2ccccc12)C(=O)O)c1ccc(Cl)cc1 (configuration not stated)" assigned_category=N
molecule=NCCCCN=C(N)N assigned_category=N
molecule=CC[C@]12CCCN3CCc4c(n(c5ccccc45)[C@](O)(C(=O)OC)C1)[C@@H]32 assigned_category=N
molecule=COc1ccc(CN(CCN(C)C)c2ncccn2)cc1 assigned_category=N
molecule="NC(=O)c1cc[n+](CC2=C(C(=O)O)N3C(=O)C(NC(=O)C(c4ccccc4)S(=O)(=O)[O-])C3SC2)cc1 (configuration not stated)" assigned_category=N
molecule="CC(=O)OCC(=O)[C@@]12OC(C)(C)O[C@@H]1CC1C3C[C@H](F)C4=CC(=O)C=C[C@]4(C)[C@@]3(F)[C@@H](O)C[C@@]12C (some centres not stated)" assigned_category=N
molecule="CC1(C)O[C@@H]2CC3C4CCC5=CC(=O)C=C[C@]5(C)C4[C@@H](O)C[C@]3(C)[C@]2(C(=O)CO)O1 (some centres not stated)" assigned_category=N
molecule="C[C@]12CCC3c4ccc(OS(=O)(=O)O)cc4CCC3C1CCC2=O (some centres not stated)" assigned_category=N
molecule="CCC(COC(=O)c1cc(OC)c(OC)c(OC)c1)(c1ccccc1)N(C)C (configuration not stated)" assigned_category=N
molecule="C#C[C@]1(O)CCC2C3CCc4cc(OC)ccc4C3CC[C@@]21C (some centres not stated)" assigned_category=N
molecule="O=C(O)CCCCC1SCC2NC(=O)NC21 (configuration not stated)" assigned_category=N
molecule=CCOc1ccc2c(c1)C(C)=CC(C)(C)N2 assigned_category=N
molecule=c1cc2c(cc1[C@H]1OC[C@H]3[C@@H]1CO[C@H]3c1ccc3c(c1)OCO3)OCO2 assigned_category=Y
molecule=O=C(O)P(=O)(O)O assigned_category=N
molecule="CCCN(CCC)C(=O)C(CCC(=O)O)NC(=O)c1ccccc1 (configuration not stated)" assigned_category=N
molecule=COC(=O)[C@H]1[C@H]2C[C@@H]3c4[nH]c5cc(OC)ccc5c4CCN3C[C@H]2C[C@@H](OC(=O)c2cc(OC)c(OC)c(OC)c2)[C@@H]1OC assigned_category=N
molecule=O=C(/C=C/c1ccc(O)c(O)c1)O[C@@H]1C[C@](O)(C(=O)O)C[C@@H](O)[C@H]1O assigned_category=N
molecule=CCCc1cc(OC)c2c(c1)OCO2 assigned_category=N
molecule=O=c1cccc2n1C[C@H]1CNCC2C1 assigned_category=N
molecule=COS(C)(=O)=O assigned_category=N
molecule=C[C@@H]1C[C@@H]([C@H](O)CC2CC(=O)NC(=O)C2)C(=O)[C@@H](C)C1 assigned_category=Y
